Protocol notes: Half life in mouse at 25 mg/kg, po
Setup conditions: in vivo
Attribute measured: half-life (h)
Numbers only; they are read as h.

>>> measured("CC(CCO)n1nc(-c2cnc3cc(OC4CC4)ccc3c2)c(C(N)=O)c1N (configuration not stated)")
2.05

For the next question, use this compound.
Request the reported half-life associated with CC(CCO)n1nc(-c2ccc3nc(OC4CC4)ccc3c2)c(C(N)=O)c1N (configuration not stated) 1.42

----------
Setup conditions: mouse, in vivo, po, 30 mg/kg, 168 h
Attribute measured: Cmax (nM)
Numbers only; they are read as nM.

Request the reported Cmax associated with CCOc1ccc2cc(-c3nn(C(C)(C)CCO)c(N)c3C(N)=O)ccc2c1 510
